# Test Details: Distribution coefficent (Log D) value at pH 7.4
# Assay type: physicochemical
# Study Conditions: read-out: LogD7.4
logD listing for selected molecules.

Molecule	logD
C=CC[C@@H]1/C=C(\C)C[C@H](C)C[C@H](OC)[C@H]2O[C@@](O)(C(=O)C(=O)N3CCCC[C@H]3C(=O)O[C@H](/C(C)=C/[C@@H]3CC[C@@H](O)[C@H](OC)C3)[C@H](C)[C@@H](O)CC1=O)[C@H](C)C[C@@H]2OC [TACROLIMUS ANHYDROUS]	4.38
CC[C@@H]1/C=C(\C)C[C@H](C)C[C@H](OC)[C@H]2O[C@@](O)(C(=O)C(=O)N3CCCC[C@H]3C(=O)O[C@H](/C(C)=C/[C@@H]3CC[C@@H](O)[C@H](OC)C3)[C@H](C)[C@@H](O)CC1=O)[C@H](C)C[C@@H]2OC	4.22
CC[C@@H]1/C=C(\C)C[C@H](C)C[C@H](OC)[C@H]2O[C@@](O)(C(=O)C(=O)N3CCCC[C@H]3C(=O)O[C@H](/C(C)=C/[C@@H]3CC[C@@H](OC)[C@H](O)C3O)[C@H](C)[C@@H](O)CC1=O)[C@H](C)C[C@@H]2OC (some centres undefined)	3.9

Now examine the next entry.
# input Quick one: logD for CC[C@@H]1/C=C(\C)C[C@H](C)C[C@H](OC)[C@H]2O[C@@](O)(C(=O)C(=O)N3CCCC[C@H]3C(=O)O[C@H](/C(C)=C/[C@@H]3C[C@@H](O)[C@@H](O)[C@H](OC)C3)[C@H](C)[C@@H](O)CC1=O)[C@H](C)C[C@@H]2OC ?
# output 3.4

###

# Test Details: Solubility at pH 7.4
# Assay type: physicochemical
# Study Conditions: buffer
Quantity Name: solubility (µg/mL)
Expressed in µg/mL, but write only the number.

Reference set (3 entries):
Compound	Unit Spec	solubility
CC[C@@H]1/C=C(\C)C[C@H](C)C[C@H](OC)[C@H]2O[C@@](O)(C(=O)C(=O)N3CCCC[C@H]3C(=O)O[C@H](/C(C)=C/[C@@H]3C[C@@H](O)[C@@H](O)[C@H](OC)C3)[C@H](C)[C@@H](O)CC1=O)[C@H](C)C[C@@H]2OC	µg/mL	455
CC[C@@H]1/C=C(\C)C[C@H](C)C[C@H](OC)[C@H]2O[C@@](O)(C(=O)C(=O)N3CCCC[C@H]3C(=O)O[C@H](/C(C)=C/[C@@H]3CC[C@@H](O)[C@H](OC)C3)[C@H](C)[C@@H](O)CC1=O)[C@H](C)C[C@@H]2OC [ASCOMYCIN]	µg/mL	4.2
C=CC[C@@H]1/C=C(\C)C[C@H](C)C[C@H](OC)[C@H]2O[C@@](O)(C(=O)C(=O)N3CCCC[C@H]3C(=O)O[C@H](/C(C)=C/[C@@H]3CC[C@@H](O)[C@H](OC)C3)[C@H](C)[C@@H](O)CC1=O)[C@H](C)C[C@@H]2OC [TACROLIMUS ANHYDROUS]	µg/mL	5.2

# input for lookup
# input Entry under review: CC[C@@H]1/C=C(\C)C[C@H](C)C[C@H](OC)[C@H]2O[C@@](O)(C(=O)C(=O)N3CCCC[C@H]3C(=O)O[C@H](/C(C)=C/[C@@H]3CC[C@@H](OC)[C@H](O)C3O)[C@H](C)[C@@H](O)CC1=O)[C@H](C)C[C@@H]2OC (some centres undefined) . Reported solubility?
# output 245

###

molecules and their reported logD
# Test Details: Distribution coefficient (Log D) value at pH 6.5
# Format: physicochemical
# Study Conditions: octanol/water, read-out: LogD6.5
A bare number is all that is needed in reply.

These solved cases illustrate the format of a correct answer.
Molecule	logD
CC[C@@H]1/C=C(\C)C[C@H](C)C[C@H](OC)[C@H]2O[C@@](O)(C(=O)C(=O)N3CCCC[C@H]3C(=O)O[C@H](/C(C)=C/[C@@H]3CC[C@@H](O)[C@H](OC)C3)[C@H](C)[C@@H](O)CC1=O)[C@H](C)C[C@@H]2OC	3.98
C=CC[C@@H]1/C=C(\C)C[C@H](C)C[C@H](OC)[C@H]2O[C@@](O)(C(=O)C(=O)N3CCCC[C@H]3C(=O)O[C@H](/C(C)=C/[C@@H]3CC[C@@H](O)[C@H](OC)C3)[C@H](C)[C@@H](O)CC1=O)[C@H](C)C[C@@H]2OC [TACROLIMUS ANHYDROUS]	4.36
CC[C@@H]1/C=C(\C)C[C@H](C)C[C@H](OC)[C@H]2O[C@@](O)(C(=O)C(=O)N3CCCC[C@H]3C(=O)O[C@H](/C(C)=C/[C@@H]3C[C@@H](O)[C@@H](O)[C@H](OC)C3)[C@H](C)[C@@H](O)CC1=O)[C@H](C)C[C@@H]2OC	3.6

# input What measured logD goes with CC[C@@H]1/C=C(\C)C[C@H](C)C[C@H](OC)[C@H]2O[C@@](O)(C(=O)C(=O)N3CCCC[C@H]3C(=O)O[C@H](/C(C)=C/[C@@H]3CC[C@@H](OC)[C@H](O)C3O)[C@H](C)[C@@H](O)CC1=O)[C@H](C)C[C@@H]2OC (some centres undefined) ?
# output 3.9

Origin of values: ChEMBL document CHEMBL1130792
